Source of measurements: patent US20250270287A1

Listed here: items and their measured IC50, SBE-luciferase reporter in HEK293 cells.
systemUnderTest: T1, Activin B (UniProt P09529 293-407)
T1 sequence (looked up): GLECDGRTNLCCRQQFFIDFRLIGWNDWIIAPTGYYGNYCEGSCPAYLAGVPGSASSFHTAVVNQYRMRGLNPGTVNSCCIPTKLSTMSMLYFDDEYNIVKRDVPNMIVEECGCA
methodSummary: cell-based or functional assay
I only need the number, in µg/mL, no unit after it.

binder	observedResult
ActRIIA-A6 (SEQ ID NO: 108) chimera-Fc protein (Fc fusion, Tested as chimera-Fc protein; not shown: linker (if any) and Fc domain) GAILGRSETQECLFFNANWEKDRTNQTGVEPCYGDKDKRRHCFATWKNISGSIEIVKQGCWLDDINCYDRTDCVEKEENPQVYFCCCEGNMCNEKFSYFPEMEVTQPTS	0.1
ActRIIA-B4 (SEQ ID NO: 98) chimera-Fc protein (Fc fusion, Tested as chimera-Fc protein; not shown: linker (if any) and Fc domain) GAILGRSETQECLFFNANWEKDRTNQTGVEPCYGDKDKRRHCFATWKNISGTIELVKKGCWLDDINCYDRTDCVEKKDSPEVYFCCCEGNMCNEKFSYFPEMEVTQPTS	0.094
ActRIIA-B2B4 (SEQ ID NO: 103) chimera-Fc protein (Fc fusion, Tested as chimera-Fc protein; not shown: linker (if any) and Fc domain) GAILGRSETQECLEFNANWEKDRTNQSGLERCYGDKDKRRHCFATWKNISGTIELVKKGCWLDDINCYDRTDCVEKKDSPEVYFCCCEGNMCNEKFSYFPEMEVTQPTS	0.16

Reported IC50, SBE-luciferase reporter in HEK293 cells for ActRIIA-A3 (SEQ ID NO: 106) chimera-Fc protein (Fc fusion, Tested as chimera-Fc protein; not shown: linker (if any) and Fc domain) GAILGRSETQECLFFNANWEKDRTNQTGVEPCEGEQDKRRHCFATWKNISGSIEIVKQGCWLDDINCYDRTDCVEKKDSPEVYFCCCEGNMCNEKFSYFPEMEVTQPTS : what is it?
0.24

Also ActRIIA-B7 (SEQ ID NO: 100) chimera-Fc protein (Fc fusion, Tested as chimera-Fc protein; not shown: linker (if any) and Fc domain) GAILGRSETQECLFFNANWEKDRTNQTGVEPCYGDKDKRRHCFATWKNISGSIEIVKQGCWLDDINCYDRTDCVEKKDSPEVYFCCCEGNMCNERFTHLPEMEVTQPTS , if possible.
0.18
